Assay: protein stability index of a GFP-peptide fusion (GPS, HEK-293T) (PSI 1-6); higher = more stable;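 note: 24-mer peptide tiles fused after GFP, lentivirally expressed, FACS-sorted into six equal bins by GFP/DsRed ratio, decoded by Illumina sequencing, PSI is the read-weighted mean bin number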
Conditions: treatment: MLN4924 1 uM, 8 h; c terminus: a fixed tail appended
MEASUREMENT KIND: protein stability index
Write the number on its own, no unit after it.

Examples with answers:
sequence_content="EELAPVGTAHIPPTMHLESPALQV [ZNF449]" measurement_kind="protein stability index" endpoint_value=4.33
sequence_content="TSDASFHPAFLPQRQAIKGAFYRR [KCNG1]" measurement_kind="protein stability index" endpoint_value=3.66
sequence_content="HIDSSCSSFIKTEPSSPASLTDSV [ESRRG]" measurement_kind="protein stability index" endpoint_value=4.23

Okay, now this sequence:
GET /values?readout=protein stability index&item= REMSKTFIIGELHPDDRPKLNKPP [CYB5A] 4.05
